Kd overview
molecular target: FGFR3 (Homo sapiens, UniProt P22607); construct: made in house; host or cells: E. coli (BL21-derived), T7 phage; test: Kinase binding assay (kinase-tagged T7 phage, affinity beads, qPCR), Kd; conditions: read-out: FGFR3 (Kd nM)
Sequence (P22607 23-806): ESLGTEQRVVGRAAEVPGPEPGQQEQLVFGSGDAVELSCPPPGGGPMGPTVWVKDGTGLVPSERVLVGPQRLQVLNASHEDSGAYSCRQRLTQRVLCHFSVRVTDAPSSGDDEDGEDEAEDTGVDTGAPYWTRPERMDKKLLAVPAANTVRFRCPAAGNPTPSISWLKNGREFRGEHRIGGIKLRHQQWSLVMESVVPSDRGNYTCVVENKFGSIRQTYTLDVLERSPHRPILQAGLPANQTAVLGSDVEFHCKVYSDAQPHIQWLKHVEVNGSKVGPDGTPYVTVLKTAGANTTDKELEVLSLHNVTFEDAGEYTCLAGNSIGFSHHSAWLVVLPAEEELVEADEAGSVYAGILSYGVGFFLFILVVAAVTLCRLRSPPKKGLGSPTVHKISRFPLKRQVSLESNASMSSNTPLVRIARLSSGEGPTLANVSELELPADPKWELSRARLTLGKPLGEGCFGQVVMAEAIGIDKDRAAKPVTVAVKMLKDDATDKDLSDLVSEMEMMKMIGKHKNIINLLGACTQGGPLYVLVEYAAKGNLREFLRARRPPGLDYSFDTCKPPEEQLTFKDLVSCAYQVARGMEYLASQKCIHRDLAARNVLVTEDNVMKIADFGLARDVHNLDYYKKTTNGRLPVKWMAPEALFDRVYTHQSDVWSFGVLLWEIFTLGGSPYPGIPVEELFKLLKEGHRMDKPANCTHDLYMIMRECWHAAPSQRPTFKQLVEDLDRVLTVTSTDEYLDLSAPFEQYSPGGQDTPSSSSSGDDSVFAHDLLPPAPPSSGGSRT

Past entries and their recorded results:
>>> value("CC(C)NCC1(C)CN(c2ccc(-c3n[nH]c4cc(F)c(O[C@H](C)c5c(Cl)cncc5Cl)cc34)cn2)C1")
"1 to 50 nM"
>>> value("C[C@@H](Oc1ccc2[nH]nc(-c3cnc(N4CC(C)(CN5CCCC5)C4)c(F)c3)c2c1F)c1c(Cl)cncc1Cl")
"50 to 300 nM"
>>> value("CC[C@H](C)NC1(C)CN(c2ncc(-c3n[nH]c4ccc(O[C@H](C)c5c(Cl)cncc5Cl)cc34)cc2F)C1")
"1 to 50 nM"

Here's the next entry for you.
Asked: # query: Kd of entry C[C@@H](Oc1ccc2[nH]nc(-c3ccc(N4CC(C)(NCCO)C4)nc3)c2c1F)c1c(Cl)cncc1Cl
Given back: 50 to 300 nM

====

molecular target: FGFR3 (V555M) (Homo sapiens, UniProt P22607, V555M); construct: made in house; host or cells: E. coli (BL21-derived), T7 phage; experiment: Kinase binding assay (kinase-tagged T7 phage, affinity beads, qPCR), Kd; details: V555M mutant; read-out: FGFR3 (V555M) (Kd nM)
Sequence (P22607 23-806 V555M): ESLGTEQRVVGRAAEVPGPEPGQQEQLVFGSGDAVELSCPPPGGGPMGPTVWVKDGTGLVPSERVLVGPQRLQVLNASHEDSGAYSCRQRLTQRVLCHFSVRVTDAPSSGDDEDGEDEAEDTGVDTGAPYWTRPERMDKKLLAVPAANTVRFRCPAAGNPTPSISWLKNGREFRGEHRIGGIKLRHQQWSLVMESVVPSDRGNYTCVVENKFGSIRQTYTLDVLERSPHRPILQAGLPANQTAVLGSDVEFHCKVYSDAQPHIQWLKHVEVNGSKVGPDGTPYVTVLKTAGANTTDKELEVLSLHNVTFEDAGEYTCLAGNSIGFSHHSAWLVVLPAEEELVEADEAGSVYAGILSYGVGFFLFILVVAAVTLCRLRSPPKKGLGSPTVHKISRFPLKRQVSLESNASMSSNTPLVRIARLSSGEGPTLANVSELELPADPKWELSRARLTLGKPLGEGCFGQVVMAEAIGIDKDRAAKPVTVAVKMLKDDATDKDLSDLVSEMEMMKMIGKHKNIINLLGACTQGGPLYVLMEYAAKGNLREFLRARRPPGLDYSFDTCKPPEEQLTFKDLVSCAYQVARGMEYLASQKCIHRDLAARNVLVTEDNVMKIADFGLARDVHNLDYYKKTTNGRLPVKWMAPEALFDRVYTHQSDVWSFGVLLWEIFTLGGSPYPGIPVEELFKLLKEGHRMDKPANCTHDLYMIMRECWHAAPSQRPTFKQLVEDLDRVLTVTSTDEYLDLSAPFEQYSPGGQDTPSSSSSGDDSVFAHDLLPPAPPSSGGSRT
Kd overview

Past entries and their recorded results:
>>> value("C[C@@H](Oc1ccc2[nH]nc(-c3ccc(N4CC(C)(CNS(C)(=O)=O)C4)nc3)c2c1)c1c(Cl)cncc1Cl")
"1 to 50 nM"
>>> value("COc1cc2[nH]nc(-c3cnc(N4CC(C)(N(C)C)C4)c(C#N)c3)c2cc1O[C@H](C)c1c(Cl)cncc1Cl")
"1 to 50 nM"
>>> value("C[C@@H](Oc1ccc2[nH]nc(-c3cnc(N4CC(C)(N5CCOCC5)C4)c(C#N)c3)c2c1F)c1c(Cl)cncc1Cl")
"> 1000 nM"
>>> value("C[C@@H](Oc1ccc2[nH]nc(-c3cnc(N4CC(C)(N5CCP(C)(=O)CC5)C4)c(C#N)c3)c2c1)c1c(Cl)cncc1Cl")
"1 to 50 nM"
>>> value("COc1cc2[nH]nc(-c3cnc(N4CC(C)(NCC(C)(C)O)C4)c(F)c3)c2cc1O[C@H](C)c1c(Cl)cncc1Cl")
"1 to 50 nM"

Here's the next entry for you.
Asked: # query: Kd of entry COc1cc2[nH]nc(-c3cnc(N4CC(C)(N5CCOCC5)C4)c(C#N)c3)c2cc1O[C@H](C)c1c(Cl)cncc1Cl
Given back: 1 to 50 nM

====

system: KG-1 cell line (FGFR 1-fusion); test: Cancer cell line cell viability assay (Cell Titer-Glo), 72 hr; assay type: cell-based; conditions: Homo sapiens, KG-1, KG-1 cell line (FGFR1-fusion)
pIC50: −log10 of the molar value.
QUANTITY_NAME: pIC50

>>> value("COc1cc2[nH]nc(-c3cnc(N4CC(C)(NCC(C)C)C4)c(C#N)c3)c2cc1O[C@H](C)c1c(Cl)cncc1Cl")
"6.70 to 7.30"
>>> value("C[C@H](O)CNC1(C)CN(c2ncc(-c3n[nH]c4ccc(O[C@H](C)c5c(Cl)cncc5Cl)cc34)cc2C#N)C1")
"6.00 to 6.70"
>>> value("COc1cc2[nH]nc(-c3cnc(N4CC(C)(CP(C)(C)=O)C4)c(C#N)c3)c2cc1O[C@H](C)c1c(Cl)cncc1Cl")
"6.00 to 6.70"

Asked: # query: pIC50 of entry COc1cc2[nH]nc(-c3cnc(N4CC(C)(NC(C)C)C4)c(C#N)c3)c2cc1O[C@H](C)c1c(Cl)cncc1Cl
Given back: 6.70 to 7.30

Asked: // next record C[C@@H](Oc1ccc2[nH]nc(-c3ccc(N4CC(C)(NCC(C)(C)O)C4)nc3)c2c1)c1c(Cl)cncc1Cl
Given back: 7.30 to 10.00

Asked: // next record C[C@@H](Oc1ccc2[nH]nc(-c3ccc(N4CC(N)(CS(C)(=O)=O)C4)nn3)c2c1)c1c(Cl)cncc1Cl
Given back: 6.00 to 6.70

Asked: // next record C[C@@H](O)CNC1(C)CN(c2ccc(-c3n[nH]c4ccc(O[C@H](C)c5c(Cl)cncc5Cl)cc34)cn2)C1
Given back: 7.30 to 10.00

====

target: FGFR1 (Homo sapiens, UniProt P11362); construct: made in house; host or cells: E. coli (BL21-derived), T7 phage; assay: Kinase binding assay (kinase-tagged T7 phage, affinity beads, qPCR), Kd; details: read-out: FGFR1 (Kd nM)
Sequence (P11362 22-822): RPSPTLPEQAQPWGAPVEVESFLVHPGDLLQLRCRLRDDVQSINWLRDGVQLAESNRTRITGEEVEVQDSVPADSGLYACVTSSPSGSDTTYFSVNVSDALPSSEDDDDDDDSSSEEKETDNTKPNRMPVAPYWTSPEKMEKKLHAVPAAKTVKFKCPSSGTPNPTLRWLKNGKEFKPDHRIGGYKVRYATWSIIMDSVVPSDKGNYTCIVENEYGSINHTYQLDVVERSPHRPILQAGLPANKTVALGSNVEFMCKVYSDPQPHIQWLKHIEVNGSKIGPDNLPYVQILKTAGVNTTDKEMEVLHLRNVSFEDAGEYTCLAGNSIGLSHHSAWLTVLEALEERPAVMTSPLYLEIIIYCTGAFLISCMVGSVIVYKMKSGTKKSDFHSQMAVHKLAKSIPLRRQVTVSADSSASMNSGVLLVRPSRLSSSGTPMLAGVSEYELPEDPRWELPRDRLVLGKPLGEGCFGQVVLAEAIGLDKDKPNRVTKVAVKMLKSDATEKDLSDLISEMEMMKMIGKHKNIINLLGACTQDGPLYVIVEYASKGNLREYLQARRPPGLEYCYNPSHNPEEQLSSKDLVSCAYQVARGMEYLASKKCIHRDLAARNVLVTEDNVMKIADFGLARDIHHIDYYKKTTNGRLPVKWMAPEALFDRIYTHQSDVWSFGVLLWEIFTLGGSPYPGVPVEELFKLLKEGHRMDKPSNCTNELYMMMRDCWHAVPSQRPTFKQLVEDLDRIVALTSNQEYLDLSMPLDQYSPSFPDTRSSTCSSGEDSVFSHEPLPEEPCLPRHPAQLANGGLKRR
Kd overview

Past entries and their recorded results:
>>> value("C[C@@H](Oc1cc2c(-c3cnc(N4CC(C)(N5CCCC5)C4)c(F)c3)n[nH]c2cc1F)c1c(Cl)cncc1Cl")
"1 to 50 nM"
>>> value("C[C@@H](O)CNC1(C)CN(c2ccc(-c3n[nH]c4ccc(O[C@H](C)c5c(Cl)cncc5Cl)cc34)cn2)C1")
"1 to 50 nM"

Asked: # query: Kd of entry C[C@@H](Oc1ccc2[nH]nc(-c3ccc(N4CC(N)(Cc5cnn(C)c5)C4)nn3)c2c1)c1c(Cl)cncc1Cl
Given back: 1 to 50 nM

====

target: FGFR3 (V555M) (Homo sapiens, UniProt P22607, V555M); construct: made in house; host or cells: E. coli (BL21-derived), T7 phage; assay: Kinase binding assay (kinase-tagged T7 phage, affinity beads, qPCR), Kd; conditions: V555M mutant; read-out: FGFR3 (V555M) (Kd nM)
QUANTITY_NAME: Kd

Past entries and their recorded results:
>>> value("C[C@@H](Oc1ccc2[nH]nc(-c3cnc(N4CC(C)(CS(C)(=O)=O)C4)c(F)c3)c2c1)c1c(Cl)cncc1Cl")
"1 to 50 nM"
>>> value("C[C@@H](Oc1ccc2[nH]nc(-c3cnc(N4CC(C)(NCC5CC5)C4)c(C#N)c3)c2c1)c1c(Cl)cncc1Cl")
"1 to 50 nM"
>>> value("COc1cc2[nH]nc(-c3cnc(N4CC(C)(NC5CCC5)C4)c(C#N)c3)c2cc1O[C@H](C)c1c(Cl)cncc1Cl")
"1 to 50 nM"

Here's the next entry for you.
Asked: # query: Kd of entry COc1cc2[nH]nc(-c3cnc(N4CC(C)(NCCO)C4)c(C#N)c3)c2cc1O[C@H](C)c1c(Cl)cncc1Cl
Given back: 1 to 50 nM

====

target: FGFR2 (Homo sapiens); construct: made in house; host or cells: E. coli (BL21-derived), T7 phage; assay: Kinase binding assay (kinase-tagged T7 phage, affinity beads, qPCR), Kd; conditions: FGFR2 (Kd nM)
Sequence (P21802 22-821): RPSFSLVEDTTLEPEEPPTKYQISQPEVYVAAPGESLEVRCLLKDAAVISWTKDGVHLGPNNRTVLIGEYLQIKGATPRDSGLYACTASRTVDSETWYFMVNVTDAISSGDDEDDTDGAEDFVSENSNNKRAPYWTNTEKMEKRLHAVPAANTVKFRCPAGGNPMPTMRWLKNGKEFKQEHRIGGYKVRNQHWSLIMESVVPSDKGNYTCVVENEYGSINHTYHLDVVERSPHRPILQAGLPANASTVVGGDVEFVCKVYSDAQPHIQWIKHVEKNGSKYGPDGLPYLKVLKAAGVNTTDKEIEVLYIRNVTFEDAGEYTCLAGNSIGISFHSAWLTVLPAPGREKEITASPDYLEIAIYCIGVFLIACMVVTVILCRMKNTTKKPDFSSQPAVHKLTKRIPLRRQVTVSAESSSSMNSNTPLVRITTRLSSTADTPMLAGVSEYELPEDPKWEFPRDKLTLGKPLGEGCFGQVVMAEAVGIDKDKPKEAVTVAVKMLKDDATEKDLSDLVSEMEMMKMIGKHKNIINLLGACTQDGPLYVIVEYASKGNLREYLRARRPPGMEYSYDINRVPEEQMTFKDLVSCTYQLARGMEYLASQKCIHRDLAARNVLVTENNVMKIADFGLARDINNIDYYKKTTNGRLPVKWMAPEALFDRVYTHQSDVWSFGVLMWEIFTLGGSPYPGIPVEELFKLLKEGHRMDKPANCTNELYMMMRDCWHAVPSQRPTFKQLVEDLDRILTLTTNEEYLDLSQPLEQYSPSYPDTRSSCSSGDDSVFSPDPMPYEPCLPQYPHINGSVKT
QUANTITY_NAME: Kd

Asked: # query: Kd of entry COP(=O)(CC1(C)CN(c2ncc(-c3n[nH]c4ccc(O[C@H](C)c5c(Cl)cncc5Cl)cc34)cc2F)C1)OC [Example 215]
Given back: 1 to 50 nM

====

biological target: FGFR3 (V555M) (Homo sapiens, UniProt P22607, V555M); construct: made in house; host or cells: E. coli (BL21-derived), T7 phage; assay: Kinase binding assay (kinase-tagged T7 phage, affinity beads, qPCR), Kd; conditions: V555M mutant; read-out: FGFR3 (V555M) (Kd nM)
QUANTITY_NAME: Kd

Past entries and their recorded results:
>>> value("C[C@@H](Oc1ccc2[nH]nc(-c3cnc(N4CC(C)(NC5CCC5)C4)c(C#N)c3)c2c1)c1c(Cl)cncc1Cl")
"1 to 50 nM"
>>> value("COc1cc2[nH]nc(-c3cnc(N4CC(C)(NCC(C)(C)O)C4)c(C#N)c3)c2cc1O[C@H](C)c1c(Cl)cncc1Cl")
"1 to 50 nM"
>>> value("C[C@@H](Oc1ccc2[nH]nc(-c3ccc(N4CC(C)(N5CCP(C)(=O)CC5)C4)nc3)c2c1)c1c(Cl)cncc1Cl")
"1 to 50 nM"

Here's the next entry for you.
Asked: # query: Kd of entry CNC1(C)CN(c2ncc(-c3n[nH]c4ccc(O[C@H](C)c5c(Cl)cnc(C)c5Cl)cc34)cc2C#N)C1
Given back: 1 to 50 nM

====

target: FGFR1 (Homo sapiens, UniProt P11362); construct: made in house; host or cells: E. coli (BL21-derived), T7 phage; test: Kinase binding assay (kinase-tagged T7 phage, affinity beads, qPCR), Kd; details: read-out: FGFR1 (Kd nM)
Kd overview

>>> value("CC(=O)N1CCN(C2(C)CN(c3ncc(-c4n[nH]c5ccc(O[C@H](C)c6c(Cl)cncc6Cl)cc45)cc3F)C2)CC1 [Example 220]")
"1 to 50 nM"
>>> value("C[C@@H](Oc1cc2c(-c3cnc(N4CC(C)(CN5CCCC5)C4)c(C#N)c3)n[nH]c2cc1F)c1c(Cl)cncc1Cl [Example 317]")
"50 to 300 nM"
>>> value("C=CCC1(N)CN(c2ncc(-c3n[nH]c4ccc(O[C@H](C)c5c(Cl)cncc5Cl)cc34)cc2F)C1 [Example 264]")
"1 to 50 nM"

Asked: # query: Kd of entry COCCN(C)C1(C)CN(c2ncc(-c3n[nH]c4ccc(O[C@H](C)c5c(Cl)cncc5Cl)cc34)cc2F)C1 [Example 85]
Given back: 1 to 50 nM

Provenance of the data: patent US20250368666A1
